# Test system: Botrytis cinerea (B05.10)
# Method: Resazurin antifungal assay of 180 alpha-factor peptide variants towards Botrytis (Example 2)
# Format: cell-based
# Recorded Conditions: % inhibition of fungal growth, Botrytis conidia, peptide 20 μM, resazurin
Peptide text beside a SMILES is read from it.
Value Kind: Inhibition at 20 μM (%)
Answers are plain numbers, in %.

Molecule	Uom	Inhibition at 20 μM
CC[C@H](C)[C@H](NC(=O)[C@H](CCCCN)NC(=O)[C@@H](NC(=O)[C@H](CCCCN)NC(=O)[C@H](CC(C)C)NC(=O)[C@H](Cc1c[nH]c2ccccc12)NC(=O)[C@H](Cc1c[nH]cn1)NC(=O)[C@@H](N)CCCCN)[C@@H](C)CC)C(=O)NCC(=O)N[C@@H](CCC(=O)O)C(=O)N1CCC[C@H]1C(=O)N[C@@H](CCSC)C(=O)N[C@@H](Cc1ccc(O)cc1)C(=O)O [compound 62] (H-KHWLKIKIGEPMY-OH; N-terminus and C-terminus assumed)	%	100

Provide value of Inhibition at 20 μM for this record tested with Botrytis cinerea (B05.10): CSCC[C@H](NC(=O)[C@@H]1CCCN1C(=O)[C@H](CCC(N)=O)NC(=O)CNC(=O)[C@@H](NC(=O)[C@H](CCCCN)NC(=O)[C@H](CC(C)C)NC(=O)[C@H](CCCNC(=N)N)NC(=O)[C@@H](NC(=O)[C@H](Cc1c[nH]c2ccccc12)NC(=O)[C@H](CCCCN)NC(=O)[C@@H](N)Cc1c[nH]c2ccccc12)C(C)C)[C@@H](C)O)C(=O)N[C@@H](Cc1ccc(O)cc1)C(=O)O [compound 53] (H-WKWVRLKTGQPMY-OH; N-terminus and C-terminus assumed) 100
